molecular target: human IDO1 (LLTC-hIDO1 cells) (Homo sapiens, UniProt P14902); test: Cell-based assay for IDO1 inhibition (kynurenine in supernatant); conditions: IDO1-transfected Lewis Lung carcinoma cells, 24 h; read-out: Cellular IC50
pIC50: −log10 of the molar value.

{"molecule": "Nc1noc2nc(Cl)ccc12 [Compound 11, 6-Chloroisoxazolo[5,4-b]pyridin-3-amine]", "system_name": "human IDO1 (LLTC-hIDO1 cells) (Homo sapiens, UniProt P14902)", "pIC50": "> 6.00"}
{"molecule": "Cc1cc2c(N)noc2nc1C [Compound 45]", "system_name": "human IDO1 (LLTC-hIDO1 cells) (Homo sapiens, UniProt P14902)", "pIC50": "4.00 to 5.00"}
{"molecule": "CN(C)CCCOc1ccc2c(N)noc2n1 [Compound 76]", "system_name": "human IDO1 (LLTC-hIDO1 cells) (Homo sapiens, UniProt P14902)", "pIC50": "< 4.00"}

====

biological target: human IDO1 (LLTC-hIDO1 cells) (Homo sapiens); assay: Cell-based assay for IDO1 inhibition (kynurenine in supernatant); settings: IDO1-transfected Lewis Lung carcinoma cells, 24 h; read-out: Cellular IC50
pIC50: −log10 of the molar value.
endpoint: pIC50

{"molecule": "Cc1cc(Cl)nc2onc(N)c12", "system_name": "human IDO1 (LLTC-hIDO1 cells) (Homo sapiens)", "experimental_result": "> 6.00"}
{"molecule": "COc1ccc(-c2ccc3c(N)noc3n2)cc1", "system_name": "human IDO1 (LLTC-hIDO1 cells) (Homo sapiens)", "experimental_result": "< 4.00"}
{"molecule": "COc1cccc(Nc2ccc3c(N)noc3n2)c1", "system_name": "human IDO1 (LLTC-hIDO1 cells) (Homo sapiens)", "experimental_result": "5.00 to 6.00"}
{"molecule": "Cc1cc(C)c2c(N)noc2n1", "system_name": "human IDO1 (LLTC-hIDO1 cells) (Homo sapiens)", "experimental_result": "5.00 to 6.00"}
{"molecule": "Nc1noc2nc(-c3ccc(F)cc3F)ccc12", "system_name": "human IDO1 (LLTC-hIDO1 cells) (Homo sapiens)", "experimental_result": "4.00 to 5.00"}
{"molecule": "Nc1noc2nc(Oc3cccc(OC(F)(F)F)c3)ccc12", "system_name": "human IDO1 (LLTC-hIDO1 cells) (Homo sapiens)", "experimental_result": "4.00 to 5.00"}
{"molecule": "Nc1noc2ncncc12 [Compound 12, Isoxazolo[5,4-d]pyrimidin-3-amine]", "system_name": "human IDO1 (LLTC-hIDO1 cells) (Homo sapiens)", "experimental_result": "5.00 to 6.00"}
{"molecule": "CSc1ccc2c(N)noc2n1", "system_name": "human IDO1 (LLTC-hIDO1 cells) (Homo sapiens)", "experimental_result": "5.00 to 6.00"}
{"molecule": "Nc1noc2ncc(Br)cc12 [Compound 6, 5-Bromoisoxazolo[5,4-b]pyridin-3-amine]", "system_name": "human IDO1 (LLTC-hIDO1 cells) (Homo sapiens)", "experimental_result": "> 6.00"}

====

// values below are reported pIC50
target: Recombinant human IDO1 (rhIDO1) (Homo sapiens (Human)); assay: Enzymatic assay for IDO1 activity; details: rhIDO1 9 nM, 80 μM TRP, 37° C. 30 min
Sequence (P14902 whole entry): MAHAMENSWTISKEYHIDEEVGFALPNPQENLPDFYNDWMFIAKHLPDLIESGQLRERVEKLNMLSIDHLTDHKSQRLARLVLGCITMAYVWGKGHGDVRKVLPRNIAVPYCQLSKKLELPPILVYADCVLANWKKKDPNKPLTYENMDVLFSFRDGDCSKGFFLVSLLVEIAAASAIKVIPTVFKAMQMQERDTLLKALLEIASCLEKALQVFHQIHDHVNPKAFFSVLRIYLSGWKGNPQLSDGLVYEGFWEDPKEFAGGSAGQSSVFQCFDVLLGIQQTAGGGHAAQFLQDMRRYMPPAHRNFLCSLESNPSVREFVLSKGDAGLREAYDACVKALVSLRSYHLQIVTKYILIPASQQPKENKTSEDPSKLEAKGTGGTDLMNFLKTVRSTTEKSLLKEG
pIC50: −log10 of the molar value.

{"molecule": "Cc1nc2onc(N)c2c(C)c1OC(F)F [Compound 52]", "pIC50": "< 4.00"}
{"molecule": "Nc1noc2nc(Cl)c(Cl)cc12 [Compound 67]", "pIC50": "> 6.00"}
{"molecule": "Cc1cc(C)c2c(N)noc2n1 [Compound 4]", "pIC50": "4.00 to 5.00"}
{"molecule": "Cc1cnc2onc(N)c2c1 [Compound 44, 5-Methylisoxazolo[5,4-b]pyridin-3-amine]", "pIC50": "< 4.00"}
{"molecule": "CSc1ccc2c(N)noc2n1 [Compound 79]", "pIC50": "4.00 to 5.00"}
{"molecule": "Cc1nc2onc(N)c2c(C)c1Cl [Compound 3]", "pIC50": "5.00 to 6.00"}
{"molecule": "Nc1noc2nc3c(cc12)CCCCC3 [Compound 60]", "pIC50": "< 4.00"}

Source of measurements: patent US10888567B2
